Would you kindly list MIC for each of these compounds?
- Test system: Enterobacterales
- TEST METHOD NOTES: MIC, broth microdilution, CDC/FDA Antibiotic Resistance Isolate Bank (Example 7, Tables 8, 11, 12)
- Format: cell-based
- CONDITION NOTES: Morganella morganii, KUB No. 5554, AR Bank# 57; read-out: MIC
Answers are plain numbers, in µg/mL.

C[C@H]1COc2c(N3CCN(C)CC3)c(F)cc3c(=O)c(C(=O)O)cn1c23    8

// moving on: another record for MIC
Query :: Quick check: MIC of `NCC[C@H](O)C(=O)N[C@@H]1C[C@H](N)[C@@H](O[C@H]2O[C@H](CN)[C@@H](O)[C@H](O)[C@H]2O)[C@H](O)[C@H]1O[C@H]1O[C@H](CO)[C@@H](O)[C@H](N)[C@H]1O` ?
Result :: 4

These measurements were taken from patent EP4635500A1.
